System: T47D
assayDetails: Cytotoxicity against human T47D cells assessed as cell growth at 0.001 uM after 48 hrs by sulforhodamine B assay
Type: functional
statedConditions: read-out: Activity
Assign growth at 0.001 µM to each entry below.
Give bare numbers, in %.

smilesstring=Cc1cc(O)cc(-c2nn(CC#N)cc2-c2ccnc(-c3ccc(N(C)C)cc3)c2)c1 recordedvalue=93
smilesstring=Cc1cc(O)cc(-c2nn(CC#N)cc2-c2ccnc(-c3ccc(Oc4ccccc4)cc3)c2)c1 recordedvalue=95
smilesstring=COc1cc(C)cc(-c2c(-c3ccnc(-c4ccc(C(C)=O)cc4)c3)cnn2CC#N)c1 recordedvalue=93

Hi there! I need growth at 0.001 µM for each item below, if you can.
1. COc1cc(C)cc(-c2c(-c3ccnc(-c4ccc(N(C)C)cc4)c3)cnn2CC#N)c1
2. COc1cc(C)cc(-c2nn(CC#N)cc2-c2ccc(-c3cccc(C(C)=O)c3)nc2)c1
3. COc1cc(C)cc(-c2nn(CC#N)cc2-c2ccnc(-c3ccc(N(C)C)cc3)c2)c1

**A:**
1. 90
2. 88
3. 102

====

System: SNB-19
assayDetails: Growth inhibition of human SNB19 cells after 48 hrs by sulforhodamine B assay
Format: functional
statedConditions: SNB-19, 48 h
Hi there, I'd appreciate the recorded TGI for every entry that follows.

# return TGI for each item in the list
1. Cc1cc(O)cc(-c2nn(CC#N)cc2-c2ccnc(-c3ccc(Oc4ccccc4)cc3)c2)c1
2. COc1cc(C)cc(-c2nn(CC#N)cc2-c2ccc(-c3cccc(C(C)=O)c3)nc2)c1
3. COc1cc(C)cc(-c2c(-c3ccnc(-c4ccc(C(C)=O)cc4)c3)cnn2CC#N)c1
4. COc1cc(C)cc(-c2nn(CC#N)cc2-c2ccnc(-c3ccc(N(C)C)cc3)c2)c1
5. Cc1cc(O)cc(-c2nn(CC#N)cc2-c2ccnc(-c3ccc(N(C)C)cc3)c2)c1
6. COc1cc(C)cc(-c2c(-c3ccnc(-c4ccc(N(C)C)cc4)c3)cnn2CC#N)c1

**A:**
["23.4 µM", "> 100 µM", "> 100 µM", "> 100 µM", "43.9 µM", "> 100 µM"]

====

Tested on: HOP-62
assayDetails: Cytotoxicity against human HOP62 cells assessed as cell growth at 100 nM after 48 hrs by sulforhodamine B assay
Assay type: functional
statedConditions: HOP-62, 48 h, read-out: Activity
Assignment: determine reported growth at 0.1 µM for the given molecules.
Answers are plain numbers, in %.

// worked examples, growth at 0.1 µM included
smilesstring=COc1cc(C)cc(-c2c(-c3ccnc(-c4ccc(C(C)=O)cc4)c3)cnn2CC#N)c1 testedtarget=HOP-62 recordedvalue=84
smilesstring=COc1cc(C)cc(-c2c(-c3ccnc(-c4ccc(N(C)C)cc4)c3)cnn2CC#N)c1 testedtarget=HOP-62 recordedvalue=33
smilesstring=COc1cc(C)cc(-c2nn(CC#N)cc2-c2ccc(-c3cccc(C(C)=O)c3)nc2)c1 testedtarget=HOP-62 recordedvalue=82

Batch lookup, growth at 0.1 µM per entry.
1. Cc1cc(O)cc(-c2nn(CC#N)cc2-c2ccnc(-c3ccc(Oc4ccccc4)cc3)c2)c1
2. Cc1cc(O)cc(-c2nn(CC#N)cc2-c2ccnc(-c3ccc(N(C)C)cc3)c2)c1
3. COc1cc(C)cc(-c2nn(CC#N)cc2-c2ccnc(-c3ccc(N(C)C)cc3)c2)c1

**A:**
[101, 80, 16]

====

Tested on: A498
assayDetails: Growth inhibition of human A498 cells after 48 hrs by sulforhodamine B assay
Assay type: functional
statedConditions: A498, 48 h
measuredProperty: GI50 (µM)
Give bare numbers, in µM.

Below, each entry is followed by its recorded GI50 result.
smilesstring=COc1cc(C)cc(-c2c(-c3ccnc(-c4ccc(N(C)C)cc4)c3)cnn2CC#N)c1 recordedvalue=0.132
smilesstring=COc1cc(C)cc(-c2nn(CC#N)cc2-c2ccnc(-c3ccc(N(C)C)cc3)c2)c1 recordedvalue=0.246
smilesstring=Cc1cc(O)cc(-c2nn(CC#N)cc2-c2ccnc(-c3ccc(Oc4ccccc4)cc3)c2)c1 recordedvalue=3.87
smilesstring=COc1cc(C)cc(-c2c(-c3ccnc(-c4ccc(C(C)=O)cc4)c3)cnn2CC#N)c1 recordedvalue=2.03
smilesstring=COc1cc(C)cc(-c2nn(CC#N)cc2-c2ccc(-c3cccc(C(C)=O)c3)nc2)c1 recordedvalue=1.08

// next item, GI50 requested
**Q:** Returns the measured GI50 for the input compound. Input: `Cc1cc(O)cc(-c2nn(CC#N)cc2-c2ccnc(-c3ccc(N(C)C)cc3)c2)c1`
**A:** 3.03

====

Kindly supply the reported growth at 0.1 µM values for the records listed here.
Tested on: HT-29
assayDetails: Cytotoxicity against human HT-29 cells assessed as cell growth at 100 nM after 48 hrs by sulforhodamine B assay
Format: functional
statedConditions: HT-29, 48 h, read-out: Activity
Give bare numbers, in %.

Example entries and their recorded answers appear below.
smilesstring=COc1cc(C)cc(-c2c(-c3ccnc(-c4ccc(C(C)=O)cc4)c3)cnn2CC#N)c1 unitinfo=% recordedvalue=95
smilesstring=Cc1cc(O)cc(-c2nn(CC#N)cc2-c2ccnc(-c3ccc(N(C)C)cc3)c2)c1 unitinfo=% recordedvalue=102
smilesstring=Cc1cc(O)cc(-c2nn(CC#N)cc2-c2ccnc(-c3ccc(Oc4ccccc4)cc3)c2)c1 unitinfo=% recordedvalue=91
smilesstring=COc1cc(C)cc(-c2c(-c3ccnc(-c4ccc(N(C)C)cc4)c3)cnn2CC#N)c1 unitinfo=% recordedvalue=-24
smilesstring=COc1cc(C)cc(-c2nn(CC#N)cc2-c2ccc(-c3cccc(C(C)=O)c3)nc2)c1 unitinfo=% recordedvalue=99

**Q:** Given `COc1cc(C)cc(-c2nn(CC#N)cc2-c2ccnc(-c3ccc(N(C)C)cc3)c2)c1` , state its recorded growth at 0.1 µM.
**A:** 25

====

Tested on: OVCAR-3
assayDetails: Cytotoxicity against human OVCAR-3 cells assessed as cell growth at 10 uM after 48 hrs by sulforhodamine B assay
Assay type: functional
statedConditions: OVCAR-3, 48 h, read-out: Activity
Lab note: cut-off is -40%. Strictly less in growth at 10 µM is true (1). Exactly -40% or more is false (0).

Previously resolved entries follow.
smilesstring=COc1cc(C)cc(-c2nn(CC#N)cc2-c2ccnc(-c3ccc(N(C)C)cc3)c2)c1 cat="true (1)"
smilesstring=COc1cc(C)cc(-c2nn(CC#N)cc2-c2ccc(-c3cccc(C(C)=O)c3)nc2)c1 cat="true (1)"
smilesstring=Cc1cc(O)cc(-c2nn(CC#N)cc2-c2ccnc(-c3ccc(Oc4ccccc4)cc3)c2)c1 cat="true (1)"
smilesstring=COc1cc(C)cc(-c2c(-c3ccnc(-c4ccc(C(C)=O)cc4)c3)cnn2CC#N)c1 cat="false (0)"
smilesstring=Cc1cc(O)cc(-c2nn(CC#N)cc2-c2ccnc(-c3ccc(N(C)C)cc3)c2)c1 cat="true (1)"

**Q:** Dear reviewer, please state whether `COc1cc(C)cc(-c2c(-c3ccnc(-c4ccc(N(C)C)cc4)c3)cnn2CC#N)c1` has growth at 10 µM strictly beneath -40%.
**A:** false (0)

====

Tested on: UO-31
assayDetails: Cytotoxicity against human UO31 cells assessed as cell growth at 0.001 uM after 48 hrs by sulforhodamine B assay
Type: functional
statedConditions: UO-31, 48 h, read-out: Activity
Exercise: for every item that follows, state its recorded growth at 0.001 µM.
One number for each entry, in %.

Examples with answers:
smilesstring=Cc1cc(O)cc(-c2nn(CC#N)cc2-c2ccnc(-c3ccc(N(C)C)cc3)c2)c1 measuredproperty="growth at 0.001 µM" recordedvalue=89
smilesstring=COc1cc(C)cc(-c2nn(CC#N)cc2-c2ccc(-c3cccc(C(C)=O)c3)nc2)c1 measuredproperty="growth at 0.001 µM" recordedvalue=86
smilesstring=COc1cc(C)cc(-c2c(-c3ccnc(-c4ccc(C(C)=O)cc4)c3)cnn2CC#N)c1 measuredproperty="growth at 0.001 µM" recordedvalue=88
smilesstring=COc1cc(C)cc(-c2c(-c3ccnc(-c4ccc(N(C)C)cc4)c3)cnn2CC#N)c1 measuredproperty="growth at 0.001 µM" recordedvalue=83
smilesstring=Cc1cc(O)cc(-c2nn(CC#N)cc2-c2ccnc(-c3ccc(Oc4ccccc4)cc3)c2)c1 measuredproperty="growth at 0.001 µM" recordedvalue=91

Next compound, growth at 0.001 µM to be filled in.
**Q:** I have this compound here, `COc1cc(C)cc(-c2nn(CC#N)cc2-c2ccnc(-c3ccc(N(C)C)cc3)c2)c1` , and I need its recorded growth at 0.001 µM.
**A:** 90

====

Assign growth at 0.01 µM to each entry below.
System: OVCAR-4
assayDetails: Cytotoxicity against human OVCAR4 cells assessed as cell growth at 0.01 uM after 48 hrs by sulforhodamine B assay
Type: functional
statedConditions: OVCAR-4, 48 h, read-out: Activity
Give bare numbers, in %.

Consider the reported growth at 0.01 µM for these compounds:
smilesstring=Cc1cc(O)cc(-c2nn(CC#N)cc2-c2ccnc(-c3ccc(Oc4ccccc4)cc3)c2)c1 recordedvalue=112
smilesstring=COc1cc(C)cc(-c2c(-c3ccnc(-c4ccc(N(C)C)cc4)c3)cnn2CC#N)c1 recordedvalue=77
smilesstring=COc1cc(C)cc(-c2nn(CC#N)cc2-c2ccc(-c3cccc(C(C)=O)c3)nc2)c1 recordedvalue=97
smilesstring=COc1cc(C)cc(-c2c(-c3ccnc(-c4ccc(C(C)=O)cc4)c3)cnn2CC#N)c1 recordedvalue=101
smilesstring=COc1cc(C)cc(-c2nn(CC#N)cc2-c2ccnc(-c3ccc(N(C)C)cc3)c2)c1 recordedvalue=98

We now examine a further compound.
**Q:** Query (compound): `Cc1cc(O)cc(-c2nn(CC#N)cc2-c2ccnc(-c3ccc(N(C)C)cc3)c2)c1` ; field requested: growth at 0.01 µM
**A:** 108
